# Tested on: RSV strain A2
# assay_text: microbe, parasite or virus in culture
# Assay type: cell-based
# run_parameters: Table 3; HEp-2 cells, RSV A2, 4 days; read-out: RSV HEp-2 EC50
# Description: Antiviral activity against RSV is determined using an infectious cytopathic cell protection assay in HEp-2 cells. In this assay, compounds inhibiting viral infection and/or replication produce a cytoprotective effect against the virus-induced cell killing that can be quantified using a cell viability reagent. The techniques used here are novel adaptations of methods described in published literature (Chapman et al., Antimicrob Agents Chemother. 2007, 51(9):3346-53.). […]
pEC50: −log10 of the molar value.
Assign class by pEC50: not lower than 7 means 1.0; lower than 7 means 0.0.

Recorded results for 5 molecules are shown here.
molecule | category_label
CCC(=O)O[C@H]1[C@H](c2ccc3c(N)ncnn23)O[C@](C#N)(CO[P@@](=O)(N[C@@H](C)C(=O)OCC2CCN(CC(F)(F)F)CC2)Oc2ccccc2)[C@H]1OC(=O)CC [Example 116] | 0.0
CC(C)C(=O)OC1C(c2ccc3c(N)ncnn23)OC(C#N)(COP(=O)(NC(C)C(=O)OCC2CCC(N)CC2)Oc2ccccc2)C1OC(=O)C(C)C (single isomer, unassigned) [Example 209] | 0.0
CCCOC(=O)[C@H](C)NP(=O)(OC[C@@]1(C#N)O[C@@H](c2ccc3c(N)ncnn23)[C@H](OC(=O)C(C)C)[C@@H]1OC(=O)C(C)C)Oc1ccccc1 (single isomer, unassigned) [Example 191] | 1.0
CC(=O)O[C@H]1[C@H](c2ccc3c(N)ncnn23)O[C@](C#N)(CO[P@@](=O)(N[C@@H](C)C(=O)OCC2CC2)Oc2ccccc2)[C@H]1OC(C)=O [Example 102] | 0.0
CC(C)[C@H](N)C(=O)O[C@H]1[C@H](c2ccc3c(N)ncnn23)O[C@](C#N)(COP(=O)(N[C@@H](C)C(=O)OC2CCOCC2)Oc2ccccc2)[C@H]1OC(=O)[C@@H](N)C(C)C (some centres unmarked) [Example 221] | 0.0

Answer whether pEC50 of CCC(=O)O[C@H]1[C@H](c2ccc3c(N)ncnn23)O[C@](C#N)(CO[P@@](=O)(N[C@@H](C)C(=O)OCC2CC2)Oc2ccccc2)[C@H]1OC(=O)CC [Example 99] is greater than or equal to 7. 1.0

Follow-up item: CC(C)C(=O)O[C@H]1[C@H](c2ccc3c(N)ncnn23)O[C@](C#N)(COP(=O)(N[C@@H](C)C(=O)OCC2CC2)Oc2ccccc2)[C@H]1OC(=O)C(C)C (some centres unmarked) [Example 238] 1.0

What would you report for CCCOC(=O)[C@H](C)NP(=O)(OC[C@@]1(C#N)O[C@@H](c2ccc3c(N)ncnn23)[C@H](OC(=O)CC)[C@@H]1OC(=O)CC)Oc1ccccc1 (single isomer, unassigned) [Example 189] ? 1.0
